Molecular target: Human full-length SHP2 recombinant protein (Homo sapiens (Human))
Sequence (Q06124 whole entry): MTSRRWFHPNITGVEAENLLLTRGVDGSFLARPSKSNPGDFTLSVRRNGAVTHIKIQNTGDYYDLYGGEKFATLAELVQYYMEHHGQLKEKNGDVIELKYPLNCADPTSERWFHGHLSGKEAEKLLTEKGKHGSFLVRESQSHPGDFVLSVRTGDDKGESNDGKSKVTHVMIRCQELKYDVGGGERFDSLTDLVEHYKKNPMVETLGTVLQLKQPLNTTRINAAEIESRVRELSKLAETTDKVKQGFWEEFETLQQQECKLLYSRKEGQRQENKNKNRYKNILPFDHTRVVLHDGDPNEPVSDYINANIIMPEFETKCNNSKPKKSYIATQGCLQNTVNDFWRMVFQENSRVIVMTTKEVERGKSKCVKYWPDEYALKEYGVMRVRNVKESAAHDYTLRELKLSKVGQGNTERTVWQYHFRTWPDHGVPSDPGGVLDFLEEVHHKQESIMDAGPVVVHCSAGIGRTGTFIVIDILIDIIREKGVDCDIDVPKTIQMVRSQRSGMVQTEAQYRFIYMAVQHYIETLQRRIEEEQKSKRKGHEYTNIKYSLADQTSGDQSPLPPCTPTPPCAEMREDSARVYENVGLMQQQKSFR
Assay: Assay of full-length SHP2 phosphatase activity
Details: DiFMUP substrate, with activating peptide
Please respond with reported pIC50 for every item in the list.
Answers are plain numbers, as −log10 of the molar value.

Worked examples follow.
C#Cc1ccc2c(c1)[C@@H](N)C1(CCN(c3cc(=O)n(-c4ccccc4Cl)c(C)n3)CC1)C2 [Compound 42] : 8.22
C#Cc1ccc2c(c1)[C@@H](N)C1(CCN(c3cc(=O)n(-c4cccc(SC)c4)c(C)n3)CC1)C2 : 7.74
C#Cc1ccc2c(c1)[C@@H](N)C1(CCN(c3cc(=O)n(-c4cccc(Cl)c4)c(C)n3)CC1)C2 : 7.74

Quick one: give me pIC50 for each item below, same order please.
1. C#Cc1ccc2c(c1)[C@@H](N)C1(CCN(c3cc(=O)n(-c4c(Cl)cccc4Cl)c(C)n3)CC1)C2
2. C#Cc1ccc2c(c1)[C@@H](N)C1(CCN(c3nc(N)c(-c4cn(C)c5ncccc45)c(=O)n3C)CC1)C2
3. CC#Cc1ccc2c(c1)[C@@H](N)C1(CCN(c3cc(=O)n(-c4ccc(F)c(OC)c4Cl)c(C)n3)CC1)C2 (atropisomer, axis not shown) [Compound 207]
4. COCC#Cc1ccc2c(c1)[C@@H](N)C1(CCN(c3ncc(Sc4ccnc(N)c4Cl)c4ncnn34)CC1)C2
5. COCC#Cc1ccc2c(c1)[C@@H](N)C1(CCN(c3cc(=O)n(-c4ccc(C#N)c(O)c4F)c(C)n3)CC1)C2
6. C#Cc1ccc2c(c1)[C@@H](N)C1(CCN(c3ncc(Sc4ccnc(N)c4Cl)c(=O)n3C)CC1)O2
7. C#Cc1ccc2c(c1)[C@@H](N)C1(CCN(c3ncc(Sc4ccnc(N)n4)nc3CO)CC1)C2
8. COc1nccc(Sc2nc(C)c(N3CCC4(CC3)Cc3ccc(C#CC(=O)N(C)C)cc3[C@H]4N)nc2N)c1Cl

Marked response:
1: 6.51; 2: 8.70; 3: 8.70; 4: 8.40; 5: 7.38; 6: 8.70; 7: 9.30; 8: 8.22

Quick one: give me pIC50 for each item below, same order please.
1. C#Cc1ccc2c(c1)[C@@H](N)C1(CCN(c3cnc(Sc4ccnc(N)c4Cl)cn3)CC1)C2
2. CC#Cc1ccc2c(c1)[C@@H](N)C1(CCN(c3cc(=O)n(-c4ccc(F)c(Cl)c4Cl)c(C)n3)CC1)C2 (atropisomer, axis not shown) [Compound 221]
3. CN(C)CC#Cc1ccc2c(c1)[C@@H](N)C1(CCN(c3ncc(Sc4ccnc(N)c4Cl)c4nccn34)CC1)C2
4. C#Cc1ccc2c(c1)[C@@H](N)C1(CCN(c3cc(=O)n(-c4ccc(C#N)c(OC)c4Cl)c(C)n3)CC1)C2 [Compound 183]

Marked response:
1. 9.00
2. 9.00
3. 9.00
4. 8.70

Quick one: give me pIC50 for each item below, same order please.
1. Cc1nc(N2CCC3(CC2)Cc2ccc(C#CCO)cc2[C@H]3N)cc(=O)n1-c1cccc(Cl)c1Cl
2. CN(C)C(=O)C#Cc1ccc2c(c1)[C@@H](N)C1(CCN(c3cnc(Sc4ccnc(N)c4Cl)cn3)CC1)C2
3. C#Cc1cc(F)c2c(c1)[C@@H](N)C1(CCN(c3ncc(Sc4ccnc(N)c4Cl)n4nccc34)CC1)C2
4. C#Cc1ccc2c(c1)[C@@H](N)C1(CCN(c3cc(=O)n(-c4ccccc4SC)c(C)n3)CC1)C2
5. COCC#Cc1ccc2c(c1)[C@@H](N)C1(CCN(c3cc(=O)n(-c4ccc(C#N)cc4Cl)c(C)n3)CC1)C2
6. C#Cc1ccc2c(c1)[C@@H](N)C1(CCN(c3nc(N)c(Sc4ccnc(N)c4Cl)nc3C)CC1)C2

Marked response:
1. 9.00
2. 9.40
3. 7.42
4. 7.54
5. 7.80
6. 8.92

Quick one: give me pIC50 for each item below, same order please.
1. Cc1nc(Sc2ccnc(N)c2Cl)cnc1N1CCC2(CC1)Cc1ccc(C#CC(N)=O)cc1[C@H]2N
2. COCCSc1ccc2c(c1)[C@@H](N)C1(CCN(c3cc(=O)n(-c4ccc(F)c(OC)c4F)c(C)n3)CC1)C2
3. Cc1c(N2CCC3(CC2)Cc2ccc(C#CCN(C)C)cc2[C@H]3N)nc(C)n(-c2cccc(Cl)c2Cl)c1=O (atropisomer, axis not shown) [Compound 50]
4. C#Cc1ccc2c(c1)CC1(CCN(c3cc(=O)n(-c4ccc(F)c(F)c4)c(C)n3)CC1)[C@@H]2N

Marked response:
[9.00, 7.92, 7.82, 6.27]

Exam item: Give the reported pIC50 for `Cc1nc(N2CCC3(CC2)Cc2ccc(C#CCN(C)C)cc2[C@H]3N)cc(=O)n1-c1ccc(F)c(Cl)c1Cl` (system: Human full-length SHP2 recombinant protein (Homo sapiens (Human))).
Marked response: 8.70

---

Please respond with reported IC50 for every item in the list.
Biological target: Human full-length SHP2 recombinant protein (Homo sapiens (Human))
Test: Assay of full-length SHP2 phosphatase activity
Type: biochemical
Conditions: DiFMUP substrate, with activating peptide
Answers are plain numbers, in nM.

COCC#Cc1ccc2c(c1)[C@@H](N)C1(CCN(c3cc(=O)n(-c4ccc(F)c(OC)c4Cl)c(C)n3)CC1)C2 (atropisomer, axis not shown) [Compound 164] : 42

Quick one: give me IC50 for each item below, same order please.
1. C#Cc1ccc2c(c1)[C@@H](N)C1(CCN(c3cc(=O)n(-c4ccnc(Cl)c4)c(C)n3)CC1)C2
2. COCC#Cc1ccc2c(c1)[C@@H](N)C1(CCN(c3ncc(Sc4ccnc(N)n4)nc3CO)CC1)C2
3. CNC(=O)C#Cc1ccc2c(c1)[C@@H](N)C1(CCN(c3cc(=O)n(-c4ccc(F)c(F)c4Cl)c(C)n3)CC1)C2 (atropisomer, axis not shown) [Compound 210]
4. CC#Cc1ccc2c(c1)[C@@H](N)C1(CCN(c3cc(=O)n(-c4cccc(Cl)c4Cl)c(C)n3)CC1)C2

Marked response:
1: 13; 2: 1; 3: 52; 4: 1

Quick one: give me IC50 for each item below, same order please.
1. C#Cc1ccc2c(c1)[C@@H](N)C1(CCN(c3cc(=O)n(-c4ccc(F)c(Cl)c4)c(C)n3)CC1)C2
2. C#Cc1ccc2c(c1)CC1(CCN(c3nc(N)c(-c4cn(C)c5ncccc45)c(=O)n3C)CC1)[C@@H]2N
3. CNC(=O)C#Cc1ccc2c(c1)[C@@H](N)C1(CCN(c3nc(N)c(Sc4ccnc(N)c4Cl)nc3Br)CC1)C2

Marked response:
1: 11; 2: 4; 3: 1.5

---

Molecular target: Human full-length SHP2 recombinant protein (Homo sapiens (Human))
Test: Assay of full-length SHP2 phosphatase activity
Settings: DiFMUP substrate, with activating peptide
readout.label: log10 IC50 (log10 of the value in µM)
For clarity, the numbers are log10 values of IC50 expressed in µM.

Worked examples follow.
Cc1nc(N2CCC3(CC2)Cc2ccc(C#CC(N)=O)cc2[C@H]3N)cnc1Sc1ccnc(N)c1Cl : -3.00
C#Cc1ccc2c(c1)[C@@H](N)C1(CCN(c3cc(=O)n(-c4c(F)cccc4F)c(C)n3)CC1)C2 : -1.77
C#Cc1ccc2c(c1)[C@@H](N)C1(CCN(c3cnc(Sc4ccnc(N)c4Cl)c(N)n3)CC1)C2 : -2.52
CNC(=O)C#Cc1ccc2c(c1)[C@@H](N)C1(CCN(c3nc(N)c(Sc4ccnc(N)n4)nc3C)CC1)C2 : -3.00
C#Cc1cc(F)c2c(c1)[C@@H](N)C1(CCN(c3nc(C)n(-c4cccc(Cl)c4Cl)c(=O)c3C)CC1)C2 : -2.00
C#Cc1ccc2c(c1)[C@@H](N)C1(CCN(c3nc(C)c(Sc4ccnc(N)c4Cl)n4cncc34)CC1)C2 : -1.89

--- query ---
Exam item: Can you look up the measured log10 IC50 of `C#Cc1ccc2c(c1)CC1(CCN(c3cc(=O)n(-c4ccccc4)c(C)n3)CC1)[C@@H]2N` for me?
Marked response: -0.12

---

System: Miapaca2 3D spheroids
Assay: Assay of cell proliferation on Miapaca2 3D spheroids
Format: cell-based
Conditions: CellTiter-Glo 3D, 5 days treatment
Assign labels as follows, please: 1 for IC50 below 30 nM; 0 for IC50 equal to or exceeding 30 nM.

Observe how each entry below is paired with its result.
COCC#Cc1ccc2c(c1)[C@@H](N)C1(CCN(c3cc(=O)n(-c4ccc(F)c(OC)c4Cl)c(C)n3)CC1)C2 [Compound 158] : 0
C#Cc1ccc2c(c1)[C@@H](N)C1(CCN(c3cc(=O)n(-c4ccc(C#N)c(Cl)c4Cl)c(C)n3)CC1)C2 (atropisomer, axis not shown) [Compound 193] : 0
C#Cc1ccc2c(c1)[C@@H](N)C1(CCN(c3cc(=O)n(-c4ccc(F)c(OC)c4Cl)c(C)n3)CC1)C2 [Compound 157] : 1
C#Cc1ccc2c(c1)[C@@H](N)C1(CCN(c3cc(=O)n(-c4ccc(F)c(OC)c4Cl)c(C)n3)CC1)C2 (atropisomer, axis not shown) [Compound 161] : 1
C#Cc1ccc2c(c1)[C@@H](N)C1(CCN(c3cc(=O)n(-c4ccc(C#N)c(OC)c4Cl)c(C)n3)CC1)C2 (atropisomer, axis not shown) [Compound 191] : 0
C#Cc1ccc2c(c1)[C@@H](N)C1(CCN(c3ncc(Sc4ccnc(N)c4Cl)c(N)n3)CC1)C2 [Compound 205] : 0

Now for a further molecule.
Exam item: Lab log: compare recorded IC50 with 30 nM; is it strictly lower for CNC(=O)C#Cc1ccc2c(c1)[C@@H](N)C1(CCN(c3cc(=O)n(-c4ccc(F)c(F)c4Cl)c(C)n3)CC1)C2 (atropisomer, axis not shown) [Compound 209] ?
Marked response: 0
